Value source: patent US10196403B2

Tested on: mice
ASSAY COMMENT: Neuropharmacological Assay (SmartCube)
Type: in vivo
CONDITION: mice, i.p. 15 min before test, most efficacious dose(s) of 3 doses
Description: Neuropharmacological Assay (SmartCube™) Neurosci. 2011 Sep. 9; 5:103 (doi: 10.3389/fnins.2011.00103) (“Roberds”). […] To facilitate testing of multiple compounds for behavioral effects relevant to psychiatric disease, PsychoGenics, Inc. (Tarrytown, N.Y., “PGI”) developed SmartCube™, an automated system in which behaviors of compound-treated mice are captured by digital video and analyzed with computer algorithms. […] where LOQ is the limit of quantification. […]
REPORTED METRIC: SD: sedative hypnotic (SmartCube probability)

CNC[C@@H]1OCCc2c(C#N)cccc21
++ (5%≤ ++ <25%)
CNC[C@H]1OCCc2ccc(Cl)cc21
++ (5%≤ ++ <25%)
CNC[C@@H]1OCCc2c(F)cccc21
++ (5%≤ ++ <25%)
CNC[C@@H]1OCCc2c1ccc1c2OCO1
+ (LOQ≤ + <5%)
CNC[C@H]1OCCc2ccc3c(c21)OCC3
++ (5%≤ ++ <25%)

# SD: sedative hypnotic (SmartCube probability) of CNC[C@H]1OCCc2cccc(Cl)c21 = + (LOQ≤ + <5%)

Recorded result, CNC[C@H]1OCCc2ccc(F)cc21 , SD: sedative hypnotic (SmartCube probability): ++ (5%≤ ++ <25%)

So for CNC[C@@H]1OCCc2cccc(Cl)c21 , the logged SD: sedative hypnotic (SmartCube probability) turned out to be + (LOQ≤ + <5%)

---

Tested on: mice
ASSAY COMMENT: Neuropharmacological Assay (SmartCube)
Type: in vivo
CONDITION: mice, i.p. 15 min before test, most efficacious dose(s) of 3 doses
REPORTED METRIC: AG: analgesic (SmartCube probability)

Reference set (6 entries):
CNC[C@H]1OC[C@@H](O)c2ccc3c(c21)OCO3 (single isomer, unassigned)
+ (LOQ≤ + <5%)
CNC[C@@H]1OCCc2ccc3c(c21)CCO3
+ (LOQ≤ + <5%)
CNC[C@H]1OCCc2ccc3c(c21)OCCO3
++ (5%≤ ++ <25%)
CNC[C@H]1OCCc2cc(Cl)ccc21
+ (LOQ≤ + <5%)
Cc1cccc2c1CCO[C@H]2CN [Example 73, (R)-(5-methylisochroman-1-yl)methanamine]
+ (LOQ≤ + <5%)
CNC[C@H]1OCCc2cccc(C#N)c21
++ (5%≤ ++ <25%)

Form: compound = CNC[C@H]1OCCc2ccc(F)cc21 ; AG: analgesic (SmartCube probability) = ++ (5%≤ ++ <25%)

---

Test system: mice
ASSAY COMMENT: Neuropharmacological Assay (SmartCube)
Type: in vivo
CONDITION: mice, i.p. 15 min before test, most efficacious dose(s) of 3 doses
REPORTED METRIC: DP: anti-depressant (SmartCube probability)

Worked examples, 5 compounds total:
CNC[C@H]1OCc2c(Cl)cccc21 [Example 92]
++ (5%≤ ++ <25%)
CN(C)C[C@H]1OCCc2cccc(F)c21 [Example 84]
++ (5%≤ ++ <25%)
CC(N)C1OCCc2ccc3c(c21)OCO3 (centres unmarked) [Example 55]
++ (5%≤ ++ <25%)
CNC[C@H]1OC[C@@H](F)c2ccccc21 [Example 21]
++ (5%≤ ++ <25%)
CNC[C@@H]1OCc2cccc(F)c21 [Example 69]
++ (5%≤ ++ <25%)

Quick note, DP: anti-depressant (SmartCube probability) for CNC[C@H]1OCCCc2cccc(F)c21 [Example 60] landed at ++ (5%≤ ++ <25%)

Value of DP: anti-depressant (SmartCube probability) reported for the compound CNC[C@@H]1OCCc2ccc3c(c21)CCO3 [Example 107] is ++ (5%≤ ++ <25%)

DP: anti-depressant (SmartCube probability) for CNC[C@@H]1OCCc2c(Cl)cccc21 [Example 33] is ++++ (50%≤ ++++)

Note to self: DP: anti-depressant (SmartCube probability) recorded for Cc1cccc2c1CCO[C@@H]2CN [Example 72, (S)-(5-methylisochroman-1-yl)methanamine] was ++ (5%≤ ++ <25%)

Looking up CNC[C@@H]1OC[C@@H](O)c2ccc3c(c21)OCO3 (single isomer, unassigned) [Example 111] , I see its DP: anti-depressant (SmartCube probability) listed as ++++ (50%≤ ++++)

---

Test system: mice
ASSAY COMMENT: Neuropharmacological Assay (SmartCube)
Assay type: in vivo
CONDITION: mice, i.p. 15 min before test, most efficacious dose(s) of 3 doses
REPORTED METRIC: AG: analgesic (SmartCube probability)

NC[C@@H]1OCCc2c1ccc1c2OCO1 [Example 12]
++ (5%≤ ++ <25%)
CNC[C@H]1OCCc2ccc(Cl)cc21 [Example 64]
++ (5%≤ ++ <25%)
CNC[C@@H]1OCCc2cccc(F)c21 [Example 26]
++ (5%≤ ++ <25%)

---

Test system: mice
ASSAY COMMENT: Neuropharmacological Assay (SmartCube)
Type: in vivo
CONDITION: mice, i.p. 15 min before test, most efficacious dose(s) of 3 doses
REPORTED METRIC: AG: analgesic (SmartCube probability)

CNC[C@@H]1OCCc2c(C)cccc21 [Example 39]
++ (5%≤ ++ <25%)
NC[C@@H]1OCCc2cc(F)ccc21 [Example 34, (R)-(6-fluoroisochroman-1-yl)methanamine]
++ (5%≤ ++ <25%)
CNC[C@@H]1OCCc2ccc(F)cc21 [Example 15]
++ (5%≤ ++ <25%)

---

System: mice
ASSAY COMMENT: Neuropharmacological Assay (SmartCube)
Type: in vivo
CONDITION: mice, i.p. 15 min before test, most efficacious dose(s) of 3 doses
REPORTED METRIC: PS: anti-psychotic (SmartCube probability)

Example entries and their recorded answers appear below.
CNC[C@@H]1OCCc2cc(Cl)ccc21
+ (LOQ≤ + <5%)
CNC[C@H]1OCCc2c(OC)cccc21
+ (LOQ≤ + <5%)
CNC[C@H]1OCCc2ccc3c(c21)OC(F)(F)O3
+ (LOQ≤ + <5%)
CNC[C@H]1OCCc2c1cccc2C(F)(F)F
+ (LOQ≤ + <5%)
CNC[C@H]1OCCc2ccc(Cl)cc21
++ (5%≤ ++ <25%)

Sample CNC[C@H]1OCCc2cccc(F)c21 ; PS: anti-psychotic (SmartCube probability) observed: ++ (5%≤ ++ <25%)

PS: anti-psychotic (SmartCube probability) measured on CNC[C@H]1OCCc2cccc(Cl)c21 = ++ (5%≤ ++ <25%)

# compound CNC[C@H]1OC[C@@H](O)c2cccc(F)c21 ; its PS: anti-psychotic (SmartCube probability) = + (LOQ≤ + <5%)

Kindly note the recorded PS: anti-psychotic (SmartCube probability) for CNC[C@@H]1OCCc2ccc3c(c21)OCC3 , which is ++ (5%≤ ++ <25%)

---

System: mice
ASSAY COMMENT: Neuropharmacological Assay (SmartCube)
Format: in vivo
CONDITION: mice, i.p. 15 min before test, most efficacious dose(s) of 3 doses
REPORTED METRIC: CE: cognitive enhancer (SmartCube probability)

CNC[C@@H]1OCc2c(Cl)cccc21
++ (5%≤ ++ <25%)
CNC[C@@H]1OCCc2cccc(F)c21
++ (5%≤ ++ <25%)
CNC[C@@H]1OCCc2ccc3c(c21)OCC3
+ (LOQ≤ + <5%)
Cc1cccc2c1[C@H](CN)OCC2 [Example 75, (R)-(8-methylisochroman-1-yl)methanamine]
++ (5%≤ ++ <25%)
CNC[C@@H]1OCCc2c(C)cccc21
++ (5%≤ ++ <25%)
CNC[C@@H]1OCCc2c(C#N)cccc21
+ (LOQ≤ + <5%)
CNC[C@H]1OCCc2cc(F)ccc21
+ (LOQ≤ + <5%)
CNC[C@H]1OCCc2ccc(Cl)cc21
++ (5%≤ ++ <25%)
CNC[C@@H]1OCCc2cccc(C)c21
+ (LOQ≤ + <5%)
CNC[C@@H]1OCCc2c(O)cc3c(c21)OCO3 (single isomer, unassigned)
+ (LOQ≤ + <5%)

Proceed to the following item.
Just so you know, measured CE: cognitive enhancer (SmartCube probability) for CNC[C@@H]1OC[C@@H](O)c2ccc3c(c21)OCO3 (single isomer, unassigned) came out at + (LOQ≤ + <5%)

---

System: mice
ASSAY COMMENT: Neuropharmacological Assay (SmartCube)
Assay type: in vivo
CONDITION: mice, i.p. 15 min before test, most efficacious dose(s) of 3 doses
REPORTED METRIC: CE: cognitive enhancer (SmartCube probability)

Reference set (6 entries):
CNC[C@H]1OCc2cccc(F)c21 [Example 68]
++ (5%≤ ++ <25%)
NC[C@@H]1OCCc2c1ccc1c2OCO1 [Example 12]
+ (LOQ≤ + <5%)
CNC[C@H]1OCCc2c(C)cccc21 [Example 38]
+ (LOQ≤ + <5%)
CNC[C@H]1OCCc2cccc(C#N)c21 [Example 44]
++ (5%≤ ++ <25%)
CNC[C@H]1OCCc2c1ccc1c2OCO1 [Example 3]
+ (LOQ≤ + <5%)
CNC[C@H]1OCCc2c(C#N)cccc21 [Example 46]
++ (5%≤ ++ <25%)

Looking up CNC[C@H]1OCCc2c1cccc2C(F)(F)F [Example 78] , I found its CE: cognitive enhancer (SmartCube probability) recorded as + (LOQ≤ + <5%)

CE: cognitive enhancer (SmartCube probability) reading for NC[C@@H]1OCCc2c(Cl)cccc21 [Example 67, (R)-(5-chloroisochroman-1-yl)methanamine] : + (LOQ≤ + <5%)

Reported CE: cognitive enhancer (SmartCube probability) ( CNC[C@H]1OCCc2c(OC)cccc21 [Example 62] ) = + (LOQ≤ + <5%)

// CE: cognitive enhancer (SmartCube probability) lookup, compound = CCNC[C@@H]1OCCc2cccc(F)c21 [Example 87] , result: + (LOQ≤ + <5%)

Recorded CE: cognitive enhancer (SmartCube probability) (compound Fc1cccc2c1[C@H](CNC1CCC1)OCC2 [Example 97] ): + (LOQ≤ + <5%)

Reported CE: cognitive enhancer (SmartCube probability) of Fc1cccc2c1[C@@H](CNC1CCC1)OCC2 [Example 96] : + (LOQ≤ + <5%)
